Assay protocol: Growth inhibition of human Hep3B cells after 48 hrs by cell proliferation assay
Assay type: functional, cell-based, Hep 3B2
Measurement name: pIC50
Notebook: values listed as pIC50 are -log10 of the concentration (mol/L).

Would you mind telling me what pIC50 value was observed for CCC(C)[C@@H]1NC(=O)[C@@H](Cc2ccccc2)n2c1nc1c(c2=O)C=CC=CO1 (stereo partly specified) [PROTUBOXEPIN A] ?
3.82

----------
System: K562
Assay protocol: Growth inhibition of human K562 cells after 48 hrs by cell proliferation assay
Format: functional, cell-based
Run conditions: K562, 48 h
Measurement name: pIC50
pIC50 field: float, defined as -log10 of concentration (mol/L).

Entry under review: CCC(C)[C@@H]1NC(=O)[C@@H](Cc2ccccc2)n2c1nc1c(c2=O)C=CC=CO1 (stereo partly specified) [PROTUBOXEPIN A] . Reported pIC50?
3.60

Attribution: ChEMBL document CHEMBL1799980
